These data points were gathered from ChEMBL document CHEMBL3822455.

Tested on: Hepatitis C virus
Experiment: Antiviral activity against HCV genotype 4a assessed as replicon RNA level measured after 3 days by real-time PCR method
Format: functional, organism-based, Hepacivirus hominis
Details: 72 h
Below, each entry is listed with its recorded pEC50.
For clarity, pEC50 is expressed as the negative log10 of concentration in mol/L.

>>> assayresult("COC(=O)N[C@H](C(=O)N1CCC[C@H]1c1ncc(-c2ccc3c(c2)OC(c2cccc(-c4ccc(N)nc4)c2)n2c-3cc3cc(-c4cnc([C@@H]5CCCN5C(=O)[C@@H](NC(=O)OC)C(C)C)[nH]4)ccc32)[nH]1)C(C)C (mixture of isomers)")
11.70
>>> assayresult("COC(=O)N[C@H](C(=O)N1CCC[C@H]1c1ncc(-c2ccc3c(c2)OC(c2ccc(-c4cncnc4)cc2)n2c-3cc3cc(-c4cnc([C@@H]5CCCN5C(=O)[C@@H](NC(=O)OC)C(C)C)[nH]4)ccc32)[nH]1)C(C)C (mixture of isomers)")
10.40

Consider the record given below.
Exercise: Give recorded pEC50. COC(=O)N[C@H](C(=O)N1CCC[C@H]1c1ncc(-c2ccc3c(c2)OC(c2cccnc2)n2c-3cc3cc(-c4cnc([C@@H]5CCCN5C(=O)[C@@H](NC(=O)OC)C(C)C)[nH]4)ccc32)[nH]1)C(C)C (mixture of isomers)
Solution: 10.52

----------
Below, each entry is listed with its recorded pEC50.
System: Hepatitis C virus
Assay: Antiviral activity against HCV genotype 2a assessed as replicon RNA level measured after 3 days by real-time PCR method
Type: functional, organism-based, Hepacivirus hominis
Details: 72 h
For clarity, pEC50 is expressed as the negative log10 of concentration in mol/L.

>>> assayresult("COC(=O)N[C@H](C(=O)N1CCC[C@H]1c1ncc(-c2ccc3c(c2)OC(c2cccc(C4CC4)c2)n2c-3cc3cc(-c4cnc([C@@H]5CCCN5C(=O)[C@@H](NC(=O)OC)C(C)C)[nH]4)ccc32)[nH]1)C(C)C (mixture of isomers)")
11.00
>>> assayresult("COC(=O)N[C@H](C(=O)N1CCC[C@H]1c1ncc(-c2ccc3c(c2)OC(c2cccc(-c4ncon4)c2)n2c-3cc3cc(-c4cnc([C@@H]5CCCN5C(=O)[C@@H](NC(=O)OC)C(C)C)[nH]4)ccc32)[nH]1)C(C)C (mixture of isomers)")
11.15
>>> assayresult("CNC(=O)c1cccc(C2Oc3cc(-c4cnc([C@@H]5CCCN5C(=O)[C@@H](NC(=O)OC)C(C)C)[nH]4)ccc3-c3cc4cc(-c5cnc([C@@H]6CCCN6C(=O)[C@@H](NC(=O)OC)C(C)C)[nH]5)ccc4n32)c1 (mixture of isomers)")
10.05
>>> assayresult("COC(=O)N[C@H](C(=O)N1CCC[C@H]1c1ncc(-c2ccc3c(c2)OC(c2cccc(-c4ccc(N)nc4)c2)n2c-3cc3cc(-c4cnc([C@@H]5CCCN5C(=O)[C@@H](NC(=O)OC)C(C)C)[nH]4)ccc32)[nH]1)C(C)C (mixture of isomers)")
11.30
>>> assayresult("COC(=O)N[C@H](C(=O)N1CCC[C@H]1c1ncc(-c2ccc3c(c2)OC(c2ccccc2)n2c-3cc3cc(-c4cnc([C@@H]5CCCN5C(=O)[C@@H](NC(=O)OC)C(C)C)[nH]4)ccc32)[nH]1)C(C)C (stereo partly specified)")
11.52
>>> assayresult("COC(=O)N[C@H](C(=O)N1CCC[C@H]1c1ncc(-c2ccc3c(c2)OC(c2ccccn2)n2c-3cc3cc(-c4cnc([C@@H]5CCCN5C(=O)[C@@H](NC(=O)OC)C(C)C)[nH]4)ccc32)[nH]1)C(C)C (mixture of isomers)")
10.22
>>> assayresult("COC(=O)N[C@H](C(=O)N1CCC[C@H]1c1ncc(-c2ccc3c(c2)OC(c2cccc(C(F)(F)F)c2)n2c-3cc3cc(-c4cnc([C@@H]5CCCN5C(=O)[C@@H](NC(=O)OC)C(C)C)[nH]4)ccc32)[nH]1)C(C)C (mixture of isomers)")
11.52
>>> assayresult("COC(=O)N[C@H](C(=O)N1CCC[C@H]1c1ncc(-c2ccc3c(c2)OC(c2ccc(C#N)cc2)n2c-3cc3cc(-c4cnc([C@@H]5CCCN5C(=O)[C@@H](NC(=O)OC)C(C)C)[nH]4)ccc32)[nH]1)C(C)C (mixture of isomers)")
11.22
>>> assayresult("COC(=O)N[C@H](C(=O)N1CCC[C@H]1c1ncc(-c2ccc3c(c2)OC(c2ccncc2)n2c-3cc3cc(-c4cnc([C@@H]5CCCN5C(=O)[C@@H](NC(=O)OC)C(C)C)[nH]4)ccc32)[nH]1)C(C)C (mixture of isomers)")
10.70
>>> assayresult("COC(=O)N[C@H](C(=O)N1CCC[C@H]1c1ncc(-c2ccc3c(c2)OC(c2ccc(-c4ccc(-c5ccccc5)cc4)cc2)n2c-3cc3cc(-c4cnc([C@@H]5CCCN5C(=O)[C@@H](NC(=O)OC)C(C)C)[nH]4)ccc32)[nH]1)C(C)C (mixture of isomers)")
11.52

Exercise: Give recorded pEC50. COC(=O)N[C@H](C(=O)N1CCC[C@H]1c1ncc(-c2ccc3c(c2)OC(c2ccc(C(F)(F)F)cc2)n2c-3cc3cc(-c4cnc([C@@H]5CCCN5C(=O)[C@@H](NC(=O)OC)C(C)C)[nH]4)ccc32)[nH]1)C(C)C (mixture of isomers)
Solution: 10.57

Exercise: Give recorded pEC50. COC(=O)N[C@H](C(=O)N1CCC[C@H]1c1ncc(-c2ccc3c(c2)OC(c2cccc(C(=O)N(C)C)c2)n2c-3cc3cc(-c4cnc([C@@H]5CCCN5C(=O)[C@@H](NC(=O)OC)C(C)C)[nH]4)ccc32)[nH]1)C(C)C (mixture of isomers)
Solution: 10.40

Exercise: Give recorded pEC50. COC(=O)N[C@H](C(=O)N1CCC[C@H]1c1ncc(-c2ccc3c(c2)OC(c2ccc(-c4c(C)nn(C)c4C)cc2)n2c-3cc3cc(-c4cnc([C@@H]5CCCN5C(=O)[C@@H](NC(=O)OC)C(C)C)[nH]4)ccc32)[nH]1)C(C)C (mixture of isomers)
Solution: 10.70

----------
Test system: Hepatitis C virus
Assay: Antiviral activity against HCV genotype 4a assessed as replicon RNA level measured after 3 days by real-time PCR method
Format: functional, organism-based, Hepacivirus hominis
Conditions: 72 h
Below, each entry is listed with its recorded EC50.

>>> assayresult("COC(=O)N[C@H](C(=O)N1CCC[C@H]1c1ncc(-c2ccc3c(c2)OC(c2cccc(C4CC4)c2)n2c-3cc3cc(-c4cnc([C@@H]5CCCN5C(=O)[C@@H](NC(=O)OC)C(C)C)[nH]4)ccc32)[nH]1)C(C)C (mixture of isomers)")
"2 pM"

Consider the record given below.
Exercise: Give recorded EC50. COC(=O)N[C@H](C(=O)N1CCC[C@H]1c1ncc(-c2ccc3c(c2)OC(c2ccc(F)cc2)n2c-3cc3cc(-c4cnc([C@@H]5CCCN5C(=O)[C@@H](NC(=O)OC)C(C)C)[nH]4)ccc32)[nH]1)C(C)C (some centres not stated)
Solution: 10 pM

----------
Tested on: Hepatitis C virus
Assay: Antiviral activity against HCV genotype 4a assessed as replicon RNA level measured after 3 days by real-time PCR method
Format: functional, organism-based, Hepacivirus hominis
Conditions: 72 h
measuredParameter: pEC50
For clarity, pEC50 is expressed as the negative log10 of concentration in mol/L.

Solved cases (2 shown):
>>> assayresult("COC(=O)N[C@H](C(=O)N1CCC[C@H]1c1ncc(-c2ccc3c(c2)OC(c2ccc(C(F)(F)F)cc2)n2c-3cc3cc(-c4cnc([C@@H]5CCCN5C(=O)[C@@H](NC(=O)OC)C(C)C)[nH]4)ccc32)[nH]1)C(C)C (mixture of isomers)")
10.40
>>> assayresult("COC(=O)N[C@H](C(=O)N1CCC[C@H]1c1ncc(-c2ccc3c(c2)OC(c2ccccc2F)n2c-3cc3cc(-c4cnc([C@@H]5CCCN5C(=O)[C@@H](NC(=O)OC)C(C)C)[nH]4)ccc32)[nH]1)C(C)C (some centres undefined)")
11.15

Consider the record given below.
Exercise: Give recorded pEC50. COC(=O)N[C@H](C(=O)N1CCC[C@H]1c1ncc(-c2ccc3c(c2)OC(c2cccc(-c4ccc(-c5ccccc5)cc4)c2)n2c-3cc3cc(-c4cnc([C@@H]5CCCN5C(=O)[C@@H](NC(=O)OC)C(C)C)[nH]4)ccc32)[nH]1)C(C)C (mixture of isomers)
Solution: 11.30

----------
Tested on: Rattus norvegicus
Assay: AUC in Sprague-Dawley rat at 5 mg/kg, po
Format: ADME, organism-based
Details: in vivo
measuredParameter: AUC (µM·h)
Just the number in µM·h, nothing appended.

>>> assayresult("COC(=O)N[C@H](C(=O)N1CCC[C@H]1c1ncc(-c2ccc3c(c2)OC(c2cccc(OC)c2)n2c-3cc3cc(-c4cnc([C@@H]5CCCN5C(=O)[C@@H](NC(=O)OC)C(C)C)[nH]4)ccc32)[nH]1)C(C)C (mixture of isomers)")
0.52

Consider the record given below.
Exercise: Give recorded AUC. COC(=O)N[C@H](C(=O)N1CCC[C@H]1c1ncc(-c2ccc3c(c2)OC(c2ccc(OC(F)(F)F)cc2)n2c-3cc3cc(-c4cnc([C@@H]5CCCN5C(=O)[C@@H](NC(=O)OC)C(C)C)[nH]4)ccc32)[nH]1)C(C)C (mixture of isomers)
Solution: 1.1
